molecular target: AMPA receptor (human GluR1 flip/stargazin expressed in CHO-K1 cells) (Homo sapiens); construct: expressed in transfected cells; host or cells: CHO-K1; experiment: AMPA receptor function enhancing activity using calcium influx as index; assay type: cell-based; details: change in fluorescence level in 3 min, 100% = 3 mM glutamic acid + 300 μM cyclothiazide, 0% = 3 mM glutamic acid only
Sequence (P42261 19-906 isoform P42261-2 limits assumed): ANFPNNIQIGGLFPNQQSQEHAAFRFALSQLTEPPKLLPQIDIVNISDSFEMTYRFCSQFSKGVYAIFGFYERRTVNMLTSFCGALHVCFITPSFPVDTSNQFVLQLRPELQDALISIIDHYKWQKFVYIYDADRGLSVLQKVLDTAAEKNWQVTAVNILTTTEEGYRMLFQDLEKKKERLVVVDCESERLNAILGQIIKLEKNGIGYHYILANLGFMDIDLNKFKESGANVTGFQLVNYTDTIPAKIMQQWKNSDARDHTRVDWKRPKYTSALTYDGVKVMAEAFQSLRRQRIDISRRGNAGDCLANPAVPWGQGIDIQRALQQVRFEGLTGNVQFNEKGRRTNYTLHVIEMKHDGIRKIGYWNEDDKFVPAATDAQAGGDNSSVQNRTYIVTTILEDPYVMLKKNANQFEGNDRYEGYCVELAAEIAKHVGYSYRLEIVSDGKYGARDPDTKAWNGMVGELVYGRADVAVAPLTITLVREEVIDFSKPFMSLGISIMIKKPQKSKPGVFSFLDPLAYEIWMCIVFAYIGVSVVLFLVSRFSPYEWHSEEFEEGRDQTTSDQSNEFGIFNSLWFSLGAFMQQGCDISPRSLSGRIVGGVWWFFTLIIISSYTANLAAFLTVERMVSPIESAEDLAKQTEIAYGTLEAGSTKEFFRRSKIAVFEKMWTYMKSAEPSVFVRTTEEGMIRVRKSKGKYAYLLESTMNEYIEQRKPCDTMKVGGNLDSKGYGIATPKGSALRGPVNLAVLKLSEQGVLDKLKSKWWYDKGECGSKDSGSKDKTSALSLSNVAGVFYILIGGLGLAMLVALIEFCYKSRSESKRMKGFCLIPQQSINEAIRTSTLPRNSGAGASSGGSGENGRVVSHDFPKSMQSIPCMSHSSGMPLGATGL
Sequence (Q9Y698 whole entry partner): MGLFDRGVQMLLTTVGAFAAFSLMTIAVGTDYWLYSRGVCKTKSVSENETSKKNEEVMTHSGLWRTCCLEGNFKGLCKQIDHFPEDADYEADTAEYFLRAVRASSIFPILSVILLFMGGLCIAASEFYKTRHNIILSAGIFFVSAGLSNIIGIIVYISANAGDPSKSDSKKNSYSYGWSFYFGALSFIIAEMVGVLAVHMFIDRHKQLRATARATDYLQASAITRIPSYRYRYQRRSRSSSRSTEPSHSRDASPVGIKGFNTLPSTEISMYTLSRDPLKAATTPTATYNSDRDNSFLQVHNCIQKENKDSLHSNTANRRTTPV
quantityKind: activity (%)

A selection of reference data follows.
> print(dat)
                                    molecule  measured
 1  CCS(=O)(=O)N[C@H]1CCC(F)(F)C[C@@H]1COc1ccc(N2CCCC2=O)cc1        99
 2  CCS(=O)(=O)N[C@H]1CCC(=O)C[C@@H]1COc1ccc(C(C)C)cc1 (relative stereo)        81
 3  CS(=O)(=O)N[C@@H]1CCOC[C@H]1COc1ccc(-c2ccc(Cl)cn2)cc1F (single isomer, unassigned)        92
 4  O=S(=O)(N[C@H]1CCCO[C@@H]1COc1ccc(-c2ccc(F)cn2)cc1)C1CC1        96
 5  CCS(=O)(=O)N[C@H]1CCCC[C@@H]1COc1ccc(C2COC2)cc1 (relative stereo)        86
 6  CCS(=O)(=O)N[C@H]1CCOC[C@@H]1COc1ccc(C(C)=O)c(F)c1 (relative stereo)        89
 7  CCS(=O)(=O)N[C@H]1CCCO[C@@H]1COc1ccc(-c2ncc(F)cn2)cc1        94
 8  CCS(=O)(=O)N[C@H]1CCSC[C@@H]1COc1ccc(-n2cc(C#N)cn2)cc1        95
 9  CCS(=O)(=O)N[C@H]1CCOC[C@@H]1COc1ccc(-c2cccnc2C)cc1 (racemic)        91
10  CCS(=O)(=O)N[C@H]1CCOC[C@@H]1COc1ccc(C2CC2)cc1 (relative stereo)        91

a: CCS(=O)(=O)N[C@H]1CCC[C@@H]1COc1ccc(C(C)C)cc1 (relative stereo)
b: CCS(=O)(=O)N[C@H]1CCN(C(C)=O)C[C@@H]1COc1ccc(-n2cccn2)cc1 (relative stereo)
Inquiry: Hello, I am sorting some records. Could you say if a or b has the smaller activity (%) value? Please respond with the label that marks your chosen entry.
Reply text: b

Every entry's value here was drawn from patent US9527807B2.
